Values were extracted from paper PMC3937308.

molecular target: 6HisRsmA (RsmAxcc) (Xanthomonas citri subsp. citri strain …, UniProt Q8PLP9 1-70); experiment: EMSA; apparent Kd; 6.25 nM RNA; 10 mM HEPES pH 7.3, 20 mM KCl, 1 mM MgCl2, 1 mM DTT, 5% glycerol, 0.1 µg/µL yeast tRNA, 20 U RNasin, 25 °C 20 min; 5% native PAGE; details: protein: recombinant; tags: N-terminal 6xHis (pET-28a, NdeI site); chain copies: 2; label: 3' biotin
Sequence (Q8PLP9 whole entry): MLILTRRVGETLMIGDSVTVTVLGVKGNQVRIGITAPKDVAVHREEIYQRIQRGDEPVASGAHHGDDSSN
readoutType: pKd
Give bare numbers, as −log10 of the molar value.

Sample ACGAUGCAGCGAUCUUUGAAGAUGGAUUUUGUCCUGGCAUUG (ssRNA) [hrpG2] — what was its pKd?
6.74
